Experiment: Pharmacokinetics in mice after oral administration, plasma and brain by LC/MS/MS
Conditions: mouse brain, 30 mg/kg CuXTSM API oral; bracket = number of time points

{"Compound": "CNC1=NN=CC(C)=NN=C(NC)[S][Cu][S]1.O=C1NS(=O)(=O)c2ccccc21.O=C1NS(=O)(=O)c2ccccc21 [CuPTSM:saccharin (1:2)]", "Brain t½ (number of time points)": "487 (2) min"}
{"Compound": "CNC1=NN=C(C)C(C)=NN=C(NC)[S][Cu][S]1.O=C(O)CC(O)(CC(=O)O)C(=O)O [CuATSM:citric acid (1:1)]", "Brain t½ (number of time points)": "218 (4) min"}
{"Compound": "CNC1=NN=C(C)C(C)=NN=C(NC)[S][Cu][S]1.O=C1NS(=O)(=O)c2ccccc21.O=C1NS(=O)(=O)c2ccccc21 [CuATSM:saccharin (1:2)]", "Brain t½ (number of time points)": "202 (2) min"}
{"Compound": "CNC1=NN=C(C)C(C)=NN=C(NC)[S][Cu][S]1.O=C(O)C(O)C(O)C(O)C(O)CO.O=C(O)C(O)C(O)C(O)C(O)CO [CuATSM:gluconic acid (1:2)]", "Brain t½ (number of time points)": "261 (3) min"}
{"Compound": "CNC1=NN=C(C)C(C)=NN=C(NC)[S][Cu][S]1 [CuATSM, reference compound]", "Brain t½ (number of time points)": "199 (3) min"}
